# Test system: SK-MEL-2
# Assay summary: NCI tumour cell line growth inhibition, 48 h
Active and inactive are the calls of the source. No stated cut-off is given here; in the data, active = GI50 up to about 1.1 µM and inactive = higher.
Quantity measured: GI50

# returns recorded GI50 (system: SK-MEL-2) for O=C1CC2(CCC(O)(c3ccccc3)C(C(=O)c3ccccc3)C2)C(=O)c2ccccc2N1 (stereo unspecified) > 100 µM (inactive)

Also `O=[N+]([O-])c1cc2no[n+]([O-])c2cc1N1CCCCC1` , if possible. 7.05 µM (inactive)

Also CCC(O)c1ccc(/N=C/c2ccccc2O)cc1 (stereo unspecified) , if possible. > 100 µM (inactive)

Also `O=c1c2ccccc2sc2ccccc12` , if possible. > 100 µM (inactive)

Also `S=c1[nH]c(Cl)cc2nc(Cl)cn12` , if possible. 3.85 µM (inactive)
